# Test system: ACHN renal
# assay-summary: NCI-60 one-dose screen, 48 h
# applied-conditions: 10 µM unless noted
Compounds without any hit were thinned out: in the full panel of roughly 83,000, 20% have a hit. Calls of active or inactive are those of the source. The calls were made as follows: active = growth percent below 10; inactive = the rest.
Could you please pick one outcome from this set? label 1 for active, label 0 for inactive

Example cases with answers are listed next.
Query :: Status in this test for `Nc1nc(Nc2ccccc2SSc2ccccc2Nc2nc(N)nc(-c3cccc(Br)c3)n2)nc(-c2cccc(Br)c2)n1` ?
Result :: label 0

Query :: Status in this test for CCc1ccc(SC2c3ccc(N(CC)CC)cc3Oc3nc(N)c(C#N)c(N)c32)cc1 (stereo not drawn) ?
Result :: label 1

Query :: Status in this test for `NC(N)=Nc1ccc(Oc2cccc(NC(N)=Nc3ccc(Cl)c(C(F)(F)F)c3)c2)cc1` ?
Result :: label 0

Query :: Status in this test for `C#Cc1nc(C(=O)NCCC(=O)Nc2ccc(NC(=O)c3ccc(/C=C/C(=O)c4nccn4C)cc3)cc2)cs1` ?
Result :: label 1

Query :: Status in this test for `COc1ccc2[nH]cc(/C=N/Nc3nc4ccccc4s3)c2c1` ?
Result :: label 0

Further cases:
Query :: Status in this test for `CCN(CC)c1ccc(NC2=C(Cl)C(=O)c3nc(C)ccc3C2=O)cc1` ?
Result :: label 1

Query :: Status in this test for CC(=O)N(C)C1CCc2c(sc(NC(=O)c3ccc(C(C)(C)C)cc3)c2C(N)=O)C1 (stereo not drawn) ?
Result :: label 0

Query :: Status in this test for CC(O)c1cc2ccccc2c(=O)o1 (stereo not drawn) ?
Result :: label 0

Query :: Status in this test for `COc1ccc(C(=O)c2c(N)c(C#N)cn2-c2ccccc2OC)cc1` ?
Result :: label 0

Query :: Status in this test for COc1cc(C2N=C(NNc3ccccc3)NC(C)=C2C(C)=O)ccc1O (stereo not drawn) ?
Result :: label 0

Query :: Status in this test for `COc1cc(OC)c(S(N)(=O)=O)cc1C(=O)/C=C/c1ccc(C)cc1` ?
Result :: label 0

Query :: Status in this test for `NC(N)=Nc1ccc(Oc2cccc(NC(N)=Nc3ccc(I)cc3F)c2)cn1` ?
Result :: label 0

Query :: Status in this test for `NC(N)=Nc1ccc(Oc2cccc(NC(N)=Nc3ccc(Cl)c(C(F)(F)F)c3)c2)cn1` ?
Result :: label 0

Query :: Status in this test for `NS(=O)(=O)c1ccc(Nc2nc(SCC(=O)c3ccc(Cl)cc3)nc3c2CCCC3)cc1` ?
Result :: label 0

Query :: Status in this test for CCc1cccc2c3c(sc12)C(c1ccc(Cl)cc1)C(C#N)=C(/N=C/c1ccc(Cl)cc1)O3 (stereo not drawn) ?
Result :: label 0

Query :: Status in this test for `CCN1CCN(Cc2cn(-c3ccc(S(N)(=O)=O)cc3)nn2)CC1` ?
Result :: label 0

Query :: Status in this test for `O=C(CNc1nc(-c2cccc([N+](=O)[O-])c2)cs1)Nc1cccc([N+](=O)[O-])c1` ?
Result :: label 1

Query :: Status in this test for `COc1cc(OC)c(/C=C/S(=O)(=O)Cc2ccc(OC)c(NC(=O)CCC(=O)NO)c2)c(OC)c1` ?
Result :: label 0

Query :: Status in this test for `O=C(Nc1ccc(F)c(F)c1)c1cc(-c2ccc(F)cc2F)ccc1O` ?
Result :: label 1

Query :: Status in this test for `COc1ccc(C(=O)CSc2nc3c(c(Nc4ccc(S(N)(=O)=O)cc4)n2)CCCC3)cc1` ?
Result :: label 0

Query :: Status in this test for `Cc1cc(-c2ccc(Cl)cc2)n(Cc2nnc(SCC(=O)Nc3ccc(S(N)(=O)=O)cc3)n2C2CCCCC2)n1` ?
Result :: label 0

Query :: Status in this test for `CC[C@]12C=CCN3CC[C@@]4(c5cc(NC(=O)COc6cc(O)c7c(=O)cc(-c8ccccc8)oc7c6)c(OC)cc5N(C)[C@H]4[C@@](O)(C(=O)OC)[C@@H]1OC(C)=O)[C@@H]32` ?
Result :: label 1

Query :: Status in this test for `Cc1ccc(N2C(=O)/C(=C/C=C/c3ccco3)SC2=S)cc1` ?
Result :: label 0

Query :: Status in this test for `COc1ccc(COc2ccc(/C=C3\C(=O)Nc4ccccc43)cc2OC)cc1` ?
Result :: label 0

Query :: Status in this test for `O=S(=O)(NCCCNc1nccc(-c2[nH]c(-c3ccccc3)nc2-c2ccc(Cl)c(O)c2)n1)c1ccc(Br)cc1` ?
Result :: label 0

Query :: Status in this test for `N/C(=N\C(N)=N\c1nc2ccccc2s1)c1cccc(F)c1` ?
Result :: label 0

Query :: Status in this test for `O=S(=O)(NCCNc1nccc(-n2cnc3ccccc32)n1)c1ccc(Cl)cc1` ?
Result :: label 0
